# assayed-target: AKT1 (Homo sapiens)
# Construct: Full-length non-phosphorylated AKT1 is diluted in assay buffer
# Sequence (P31749 whole entry): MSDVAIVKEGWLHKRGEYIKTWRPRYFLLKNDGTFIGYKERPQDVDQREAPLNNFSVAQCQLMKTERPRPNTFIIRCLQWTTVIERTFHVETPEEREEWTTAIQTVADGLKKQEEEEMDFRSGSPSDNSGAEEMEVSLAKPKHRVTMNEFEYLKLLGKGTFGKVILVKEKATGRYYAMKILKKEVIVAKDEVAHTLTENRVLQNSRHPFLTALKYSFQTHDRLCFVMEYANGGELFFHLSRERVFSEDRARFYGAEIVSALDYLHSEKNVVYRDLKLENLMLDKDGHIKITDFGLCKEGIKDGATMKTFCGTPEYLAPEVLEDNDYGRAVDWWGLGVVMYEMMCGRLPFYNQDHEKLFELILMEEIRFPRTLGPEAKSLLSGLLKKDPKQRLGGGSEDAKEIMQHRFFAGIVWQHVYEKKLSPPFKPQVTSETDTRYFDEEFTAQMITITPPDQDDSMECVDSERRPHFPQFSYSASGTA
# protocol-description: AKT1 Alpha Screen Assay
# cond: full-length non-phosphorylated AKT1 8 nM, activated by PDK1 and MAPKAPK2, lipid vesicles, 50 μM ATP; biotinylated crosstide substrate; AlphaScreen
reported-metric: pIC50
Reminder that pIC50 is minus the log10 of a molar concentration.

// below: answered molecules
Ask: Please look up its pIC50: NC1(c2ccc(-c3c(-c4cccs4)nc4n3-c3cccnc3Nc3ccccc3-4)cc2)CCC1 [Example 83]
Reply: 7.14

Ask: Note, next up: C[C@H](N)c1ccc(-c2c(-c3ccccc3)nc3n2-c2cccnc2Nc2ccccc2-3)cc1 [Example 147]
Reply: 7.34

Ask: Note, next up: NC1(c2ccc(-c3c(-c4ccccc4F)nc4n3-c3cccnc3Nc3ccccc3-4)cc2)CCC1 [Example 136]
Reply: 7.08

Ask: Note, next up: Cn1nccc1-c1nc2n(c1-c1ccc(C3(N)CCC3)cc1)-c1cccnc1Nc1ccccc1-2 [Example 70]
Reply: 6.46

Ask: Note, next up: NC1(c2ccc(-c3c(-c4ccc(F)cc4)nc4n3-c3cccnc3Nc3ccccc3-4)cc2)CCC1 [Example 134]
Reply: 7.28

More entries:
Ask: Please look up its pIC50: NC1(c2ccc(-c3c(-c4ccccc4F)nc4n3-c3cccnc3Nc3ccccc3-4)cc2F)CCC1 [Example 137]
Reply: 6.77

----------
# assayed-target: AKT1 (Homo sapiens)
# Construct: Full-length non-phosphorylated AKT1 is diluted in assay buffer
# protocol-description: AKT1 Alpha Screen Assay
# cond: full-length non-phosphorylated AKT1 8 nM, activated by PDK1 and MAPKAPK2, lipid vesicles, 50 μM ATP; biotinylated crosstide substrate; AlphaScreen
Form field: pIC50 (one value per entry).
Reminder that pIC50 is minus the log10 of a molar concentration.

// below: answered compounds
Ask: Please look up its pIC50: NC1(c2ccc(-c3c(-c4ccc(-c5ccccc5)cc4)nc4n3-c3cccnc3Nc3ccccc3-4)cc2)CCC1
Reply: 7.28

Ask: Note, next up: NC1(c2ccc(-c3c(-c4nccs4)nc4n3-c3cccnc3Nc3ccccc3-4)cc2)CCC1
Reply: 8.52

Ask: Note, next up: NC1(c2ccc(-c3c(-c4ccc(F)cc4)nc4n3-c3cccnc3Nc3ccccc3-4)cc2F)CCC1
Reply: 6.92

Ask: Note, next up: NCc1ccc(-c2c(-c3ccccc3)nc3n2-c2cccnc2Nc2ccccc2-3)cc1
Reply: 6.91

Ask: Note, next up: Cc1ccccc1-c1nc2n(c1-c1ccc(C3(N)CCC3)c(F)c1)-c1cccnc1Nc1ccccc1-2
Reply: 6.31

More entries:
Ask: Please look up its pIC50: NCc1ccc(-c2nc3n(c2-c2ccc(C4(N)CCC4)cc2)-c2cccnc2Nc2ccccc2-3)cc1
Reply: 7.74

Ask: Note, next up: NC1(c2ccc(-c3c(-c4cccc(F)c4)nc4n3-c3cccnc3Nc3ccccc3-4)cc2F)CCC1
Reply: 6.53
